The origin of these recorded values is patent US8138188B2.

- method.notes: In vitro metabolism rate determination, human liver microsome (HLM) assay
- Assay type: in vitro ADME
- settings: human liver microsomes, substrate 1 μM; read-out: HLM (intrinsic clearance)
- Experimental: In vitro Metabolism Rate Determination (Human Liver Microsome (HLM); Rat Liver Microsome (RLM) Assay) Many drugs are metabolised by the cytochrome P450 mono-oxygenase system. […] [formula] […] The volume of substrate required in the remaining 1.162.5 ml incubation is calculated as follows: [formula] • N.B. The volume of organic solvent added should not exceed 0.1% of the total incubation volume. […] The microsomal 4-nitroanisole O-demethylase activity is calculated as follows: Calculation of Results […]
quantity.name: microsomal CLint at 1 μM (µL/min/mg)
Unit µL/min/mg implied. Number only.

Recorded result, CC1CN(C(=O)C2CN(c3ccc(=O)n(C)n3)CC2c2ccc(Cl)cn2)CC(C)C1(O)c1ccc(F)c(F)c1 (stereo not shown) , microsomal CLint at 1 μM: 21

Recorded result, COc1ccc(N2CC(C(=O)N3CC(C)C(O)(C4CC4)C(C)C3)C(c3ccc(Cl)cn3)C2)nn1 (stereo not shown) , microsomal CLint at 1 μM: 70

Recorded result, CC1CN(C(=O)C2CN(c3ccc(=O)n(C)n3)CC2c2ccc(Cl)cn2)CC(C)C1(O)c1ccccc1 (stereo not shown) , microsomal CLint at 1 μM: 144

Recorded result, `COc1ccc(N2C[C@@H](C(=O)N3C[C@@H](C)[C@](O)(c4ccc(F)cc4)[C@@H](C)C3)[C@H](c3ccc(Cl)cn3)C2)nn1` , microsomal CLint at 1 μM: 60

Recorded result, `COc1ccc([C@@H]2CN(c3cccnn3)C[C@H]2C(=O)N2C[C@@H](C)[C@](O)(c3ccc(F)cc3)[C@@H](C)C2)cn1` , microsomal CLint at 1 μM: 14

----------
I'd be grateful if you could share measured Ki for these entries.
Unit nM implied. Number only.

Record for CC1CN(C(=O)C2CN(c3ccc(=O)n(C)n3)CC2c2ccc(Cl)cn2)CC(C)C1(O)c1ccc(Cl)cc1 (stereo not drawn) under target or system MC3 receptor (MC3R) (Homo sapiens): Ki reported as 264

Record for `C[C@@H]1CN(C(=O)[C@@H]2CN(c3ccc(=O)n(C)n3)C[C@H]2c2ccc(Cl)cn2)C[C@H](C)[C@@]1(O)C1CCCCC1` under target or system MC3 receptor (MC3R) (Homo sapiens): Ki reported as 332

Record for COc1ccc(C2(O)C(C)CN(C(=O)C3CN(c4ccc(=O)n(C)n4)CC3c3ccc(Cl)cn3)CC2C)cc1 (stereo not drawn) under target or system MC3 receptor (MC3R) (Homo sapiens): Ki reported as 1020

----------
- target.or.system: MC4 receptor (MC4R) (Homo sapiens, UniProt P32245)
- Construct: expressed in transfected cells; host or cells: CHO-CRE MC4R cells (membranes)
- Sequence (P32245 whole entry): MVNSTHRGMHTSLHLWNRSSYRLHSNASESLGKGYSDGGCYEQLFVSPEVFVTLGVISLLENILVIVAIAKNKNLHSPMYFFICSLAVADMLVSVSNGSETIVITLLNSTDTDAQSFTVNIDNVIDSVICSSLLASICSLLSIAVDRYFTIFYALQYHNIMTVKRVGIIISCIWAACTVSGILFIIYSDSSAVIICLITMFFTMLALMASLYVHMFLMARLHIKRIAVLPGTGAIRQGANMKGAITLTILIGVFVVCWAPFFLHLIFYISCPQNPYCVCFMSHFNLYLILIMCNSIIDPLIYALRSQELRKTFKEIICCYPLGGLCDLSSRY
- method.notes: AGRP inhibition: competition binding vs [125I]AGRP(87-132) at CHO-CRE MC4R cell membranes
- settings: vs 0.3 nM [125I]AGRP(87-132)
I'd be grateful if you could share measured log10 of Ki for these entries.
Heads up, the numbers here are log10 of Ki in µM units.

Recorded result, CC1CN(C(=O)C2CN(c3ccc(=O)n(C)n3)CC2c2ccc(Cl)cn2)CC(C)C1(O)c1ccc(Cl)cc1 (stereo not shown) , log10 of Ki: -1.10

Recorded result, `C[C@@H]1CN(C(=O)[C@@H]2CN(c3cccnn3)C[C@H]2c2ccc(Cl)cn2)C[C@H](C)[C@@]1(O)c1ccccn1` , log10 of Ki: -0.28

Recorded result, CC1CN(C(=O)C2CN(c3ccc(=O)n(C)n3)CC2c2ccc(F)cn2)CC(C)C1(O)c1ccc(F)cc1 (stereo not shown) , log10 of Ki: -0.37

Recorded result, `COc1ccc(N2C[C@@H](C(=O)N3C[C@@H](C)[C@](O)(c4ccc(F)cc4)[C@@H](C)C3)[C@H](c3ccc(Cl)cn3)C2)nn1` , log10 of Ki: -1.29

Recorded result, `C[C@@H]1CN(C(=O)[C@@H]2CN(c3ccc(=O)n(C)n3)C[C@H]2c2ccc(Cl)cn2)C[C@H](C)[C@@]1(O)c1ccc(Cl)cn1` , log10 of Ki: -0.65

Recorded result, COc1ccc(N2CC(C(=O)N3CC(C)C(O)(C4CC4)C(C)C3)C(c3ccc(Cl)cn3)C2)nn1 (stereo not shown) , log10 of Ki: -0.44

Recorded result, CC1CN(C(=O)C2CN(c3ccc(C#N)nn3)CC2c2ccc(Cl)cn2)CC(C)C1(O)c1ccccn1 (stereo not shown) , log10 of Ki: -0.95
